# testTarget: Cytochrome P450 1A2 (Homo sapiens)
# testMethodNotes: p450-cyp1a2 (AID 410)
# conditionDetails: recombinant CYP1A2, luciferin-ME demethylation, luminescence; series mostly up to 11.4 µM
Inconclusive results are not listed. The source made the active and inactive calls. The call rests on the fitted dose curve.
Hi! Could you answer with just one of these? active, inactive

Worked examples, 2 compounds total:
>  <compound>
NC(CCl)=N[C@H]1CN2CCC1CC2

>  <classification>
inactive

$$$$
>  <compound>
Cc1ncc([N+](=O)[O-])n1CCN=[N+]=[N-]

>  <classification>
inactive

$$$$

Task: Recorded test call requested for CCCN1CC[C@@H]2c3cc(O)ccc3CC[C@H]21
Result: inactive

Task: Recorded test call requested for N[C@H](CCl)C(=O)O
Result: inactive

Task: Recorded test call requested for Cn1c(=O)c2[nH]cnc2n(C)c1=O.[CH2-][C@H](Cc1cccc2cc(C(=O)O)c(=O)oc12)OC.[Hg].[OH-]
Result: inactive

Task: Recorded test call requested for C[C@H](Br)CN(C[C@H](C)Br)c1ccc2c(c1)Cc1ccccc1-2
Result: active
